Numbers sourced from paper PMC9479156.

System: A549 human lung carcinoma
ASSAY REMARKS: MTT cytotoxicity assay A549
Format: cell-based
CONDITION SUMMARY: Homo sapiens, A549, 72 h, read-out: IC50 A549
Protocol: Proliferative and non-proliferative mammalian cell lines: human liver and lung cancer cell lines HepG2 and A549, and immortalized normal liver LO2 and lung BEAS-2B cells were purchased from ATCC (Manassas, VA, United States). […] All test compounds were dissolved in DMSO at a final concentration of 50 mM and stored at −20°C before use. Cytotoxicity was assessed with A549, HepG2, BEAS-2B and LO2 cells. […] The absorbance A at 570 nm was measured on the next day. […]

CHEMICAL STRUCTURE: CC1=C(O)C(=O)C=C2C1=CC=C1[C@@]2(C)CC[C@@]2(C)[C@@H]3C[C@](C)(C(=O)O)CC[C@]3(C)CC[C@]12C
IC50: 2830 nM
